B1: VH:VL chains; a variant is named by its letters at X, in order (parent)
chain 1: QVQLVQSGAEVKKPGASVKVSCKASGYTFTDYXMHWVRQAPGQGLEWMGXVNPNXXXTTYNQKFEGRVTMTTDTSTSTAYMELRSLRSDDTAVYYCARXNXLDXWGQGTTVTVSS
chain 2: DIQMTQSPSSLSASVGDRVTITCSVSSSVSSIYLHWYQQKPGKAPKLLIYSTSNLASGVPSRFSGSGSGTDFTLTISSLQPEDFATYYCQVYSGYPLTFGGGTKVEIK

- Variants of: B1
- TEST DETAILS: yeast display scFab, FACS + sequencing
REPORTED METRIC: non-specific binding call

VARIANT NOTATION: AKGKGAAV
non-specific binding call: binds
--
VARIANT NOTATION: VRGKGSGV
non-specific binding call: binds
--
VARIANT NOTATION: VRTEDAWA
non-specific binding call: no binding
--
VARIANT NOTATION: VKGRADWF
non-specific binding call: no binding
--
VARIANT NOTATION: YTRGSAWV
non-specific binding call: binds

GET /value?item= DAGGDAGD &field=non-specific binding call returns no binding

GET /value?item= VRTEDDLV &field=non-specific binding call returns no binding
